# experimental-target: Type-1 angiotensin II receptor (Homo sapiens); further: assay procedure not described here
# Sequence (P30556 whole entry): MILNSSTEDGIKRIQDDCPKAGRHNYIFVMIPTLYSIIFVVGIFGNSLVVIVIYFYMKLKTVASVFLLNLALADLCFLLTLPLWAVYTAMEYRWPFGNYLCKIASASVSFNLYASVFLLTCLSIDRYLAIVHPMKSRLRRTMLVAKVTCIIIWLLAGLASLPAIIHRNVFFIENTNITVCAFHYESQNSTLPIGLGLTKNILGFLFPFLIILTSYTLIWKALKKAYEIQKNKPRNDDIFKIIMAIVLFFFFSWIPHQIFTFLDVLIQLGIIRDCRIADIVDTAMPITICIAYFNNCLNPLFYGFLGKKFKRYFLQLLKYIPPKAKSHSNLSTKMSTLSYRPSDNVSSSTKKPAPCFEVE
parameter-measured: AC50 (µM)
Your answer is read as µM, so omit the unit and give the number.

Use the examples below as a reference point.
CCCCCCOC(=O)NC(=N)c1ccc(NCc2nc3cc(C(=O)N(CCC(=O)OCC)c4ccccn4)ccc3n2C)cc1 [DABIGATRAN ETEXILATE] | 7.7
CCC[C@@]1(CCc2ccccc2)CC(O)=C([C@H](CC)c2cccc(NS(=O)(=O)c3ccc(C(F)(F)F)cn3)c2)C(=O)O1 | 11

Which AC50 is reported for this molecule? CCOC(=O)C1=C(C)NC(C)=C(C(=O)OC)C1c1cccc(Cl)c1Cl (centres undefined) [FELODIPINE]
55.3

----------
AC50 values, listed per item
# experimental-target: B2 bradykinin receptor (Homo sapiens); further: assay procedure not described here
# Sequence (P30411 whole entry): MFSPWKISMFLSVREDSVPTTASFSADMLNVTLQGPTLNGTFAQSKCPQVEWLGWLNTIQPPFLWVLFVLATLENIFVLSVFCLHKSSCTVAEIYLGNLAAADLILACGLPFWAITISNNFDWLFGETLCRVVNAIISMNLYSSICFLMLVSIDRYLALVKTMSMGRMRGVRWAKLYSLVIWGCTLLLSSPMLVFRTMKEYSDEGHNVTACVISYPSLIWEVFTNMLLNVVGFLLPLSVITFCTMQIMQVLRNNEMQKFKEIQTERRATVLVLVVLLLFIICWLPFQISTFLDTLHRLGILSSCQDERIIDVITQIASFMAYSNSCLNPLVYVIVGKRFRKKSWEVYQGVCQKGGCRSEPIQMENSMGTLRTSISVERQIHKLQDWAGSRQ

O=C(C[S+]([O-])Cc1ccco1)NC/C=C\COc1cc(CN2CCCCC2)ccn1 (centres undefined) [LAFUTIDINE] | > 10 µM
Cc1cnc(Nc2ccc(OCCN3CCCC3)cc2)nc1Nc1cccc(S(=O)(=O)NC(C)(C)C)c1 [FEDRATINIB] | > 30 µM
O=C(O)c1ccc2nc(-c3cc(Cl)cc(Cl)c3)oc2c1 | > 30 µM
CNCCc1ccccn1 [BETAHISTINE] | > 30 µM
O=C1CN=C(c2ccccc2Cl)c2cc([N+](=O)[O-])ccc2N1 [CLONAZEPAM] | > 30 µM
O=C(O)c1nn(Cc2ccc(Cl)cc2Cl)c2ccccc12 [LONIDAMINE] | > 30 µM

Which AC50 is reported for this compound? CC(=O)Oc1ccccc1C(=O)O [ASPIRIN]
> 30 µM

Would you kindly repeat that for CC(=O)NC[C@H]1CN(c2ccc(N3CCOCC3)c(F)c2)C(=O)O1 [LINEZOLID] ?
> 30 µM

----------
# experimental-target: UniProtKB P08913
# Sequence (P08913 whole entry): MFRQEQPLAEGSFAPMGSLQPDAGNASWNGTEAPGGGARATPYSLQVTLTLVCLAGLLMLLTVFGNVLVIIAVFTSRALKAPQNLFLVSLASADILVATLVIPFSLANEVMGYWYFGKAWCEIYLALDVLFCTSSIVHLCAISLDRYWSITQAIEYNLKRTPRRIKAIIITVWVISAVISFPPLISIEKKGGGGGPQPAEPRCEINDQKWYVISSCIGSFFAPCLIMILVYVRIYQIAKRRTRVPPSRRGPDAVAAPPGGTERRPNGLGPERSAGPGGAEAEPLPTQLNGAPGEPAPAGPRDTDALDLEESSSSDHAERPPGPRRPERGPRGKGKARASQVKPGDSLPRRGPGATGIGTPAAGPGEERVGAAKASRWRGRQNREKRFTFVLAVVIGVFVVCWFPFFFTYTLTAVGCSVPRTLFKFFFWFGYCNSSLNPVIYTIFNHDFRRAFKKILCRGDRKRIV
AC50 values, listed per item
Your answer is read as µM, so omit the unit and give the number.

NC(=O)C1(N2CCCCC2)CCN(CCCN2c3ccccc3CCc3ccccc32)CC1 | 0.208

Which AC50 is reported for this compound? CC(C)Nc1cccnc1N1CCN(C(=O)c2cc3cc(NS(C)(=O)=O)ccc3[nH]2)CC1
13.4

----------
A set of compounds tested on Beta-2 adrenergic receptor (Homo sapiens), with measured AC50:

Use the examples below as a reference point.
OCCOCCN1CCN(C(c2ccccc2)c2ccc(Cl)cc2)CC1 (stereo not given) [HYDROXYZINE] | > 10 µM
CC1NCCOC1c1ccccc1 (stereo not given) [PHENMETRAZINE] | > 10 µM
C=C(c1ccccc1OCc1cccc(Cl)c1)n1ccnc1 [CROCONAZOLE] | > 30 µM
CCC(=O)c1ccc2c(c1)N(CC(C)N(C)C)c1ccccc1S2 (stereo not given) [PROPIOMAZINE] | > 10 µM

Which AC50 is reported for this compound? CNCCc1ccccn1 [BETAHISTINE]
> 30 µM

----------
AC50 values, listed per item
# experimental-target: UniProtKB P41595
# Sequence (P41595 whole entry): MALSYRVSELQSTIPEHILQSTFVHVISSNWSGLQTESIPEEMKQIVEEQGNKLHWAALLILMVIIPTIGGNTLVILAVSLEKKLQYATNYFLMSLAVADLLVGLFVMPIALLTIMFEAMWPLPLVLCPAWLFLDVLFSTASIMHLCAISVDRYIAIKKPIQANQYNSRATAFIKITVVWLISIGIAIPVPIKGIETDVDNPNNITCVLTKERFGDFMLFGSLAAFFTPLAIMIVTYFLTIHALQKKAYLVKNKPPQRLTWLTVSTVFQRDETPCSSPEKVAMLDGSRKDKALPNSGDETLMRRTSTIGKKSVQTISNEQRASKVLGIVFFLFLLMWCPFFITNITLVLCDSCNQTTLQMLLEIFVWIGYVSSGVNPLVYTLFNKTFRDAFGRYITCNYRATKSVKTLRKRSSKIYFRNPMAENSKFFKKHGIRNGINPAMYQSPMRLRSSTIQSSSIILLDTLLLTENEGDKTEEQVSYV
# Assay type: functional, cell-based

Use the examples below as a reference point.
COc1ccc(C(=O)c2ccccc2)c(O)c1 | > 30 µM
C[C@]12CCC(=O)C=C1CC[C@H]1[C@@H]3CC[C@](O)(C(=O)CO)[C@@]3(C)C[C@H](O)[C@@]12F | > 10 µM
CCCCCCCC(=O)CC[C@@H]1[C@@H](C/C=C\CCCC(=O)O)[C@@H](O)C[C@H]1O | > 30 µM
CC(=O)N1CCN(c2ccc(OCC3COC(Cn4ccnc4)(c4ccc(Cl)cc4Cl)O3)cc2)CC1 (configuration not stated) | > 10 µM
CC(=O)OCC1=C(C(=O)O)N2C(=O)[C@@H](NC(=O)CSc3ccncc3)[C@H]2SC1 | > 10 µM
c1cnc2cc3c(cc2n1)[C@@H]1CNC[C@H]3C1 | > 30 µM
CCC(=O)[C@@]1(C)[C@H](C)C[C@H]2[C@@H]3CCC4=CC(=O)C=C[C@]4(C)[C@H]3[C@@H](O)C[C@@]21C [RIMEXOLONE] | > 10 µM
NCCCNCCSP(=O)(O)O | > 30 µM

Which AC50 is reported for this compound? COC(=O)c1ccc2c(c1)NC(=O)/C2=C(\Nc1ccc(N(C)C(=O)CN2CCN(C)CC2)cc1)c1ccccc1
> 30 µM

Would you kindly repeat that for COc1ccc2c3c1O[C@H]1C(=O)CC[C@H]4[C@@H](C2)N(C)CC[C@]314 [HYDROCODONE] ?
> 10 µM

Would you kindly repeat that for CS(=O)(=O)Nc1ccc([N+](=O)[O-])cc1Oc1ccccc1 [NIMESULIDE] ?
> 30 µM

Would you kindly repeat that for CC(=O)Oc1cccc2c1C(=O)c1c(OC(C)=O)cc(C(=O)O)cc1C2=O ?
> 10 µM

Taken from ChEMBL document CHEMBL5291721.
